Target: BAFF
Test: cell binding titration by flow cytometry; soluble BAFF varied to 10 nM on cells displaying the BCMA clone
Quantity: Bmax (A.U.)

The cases that follow already have their Bmax on record.
BCMA#71 (receptor, also called Clone #71; sBCMA variant clone 71) variant BCMA extracellular domain: MLQMAGQCSQNEYFDGLLYACIPCQLRCSSNTPPLACQRYCNASVTNSVKGTDA: 1230
BCMA#106 (receptor, also called Clone #106; clones #106-111) variant BCMA extracellular domain: VSQTAGQCSQNEYFDGLLHACIPCQLRCSSDIPPLACQRYCNASVTNSVKGTNA: 870

P: BCMA#72 (receptor, also called Clone #72; sBCMA variant clone 72) variant BCMA extracellular domain: MLQMAGQCSQNEYFDGLLYACIPCQLRCSSNTPPLACQRYCNASVTNSVKGTNA
Q: BCMA#74 (receptor, also called Clone #74; sBCMA variant clone 74) variant BCMA extracellular domain: MLQMAGQCPQDEYFDGLLYACIPCQLRCSSNTPPLACQRYCNASVTSSVKGTDA
(Q) # query: argmin of Bmax over P and Q Selection: enter the item's label.
(A) P
(P: 974 A.U., Q: 1680 A.U.)
